SYSTEM: T1, TIAM2, Q8IVF5
T1 sequence (Q8IVF5 885-986, limits assumed, looked up): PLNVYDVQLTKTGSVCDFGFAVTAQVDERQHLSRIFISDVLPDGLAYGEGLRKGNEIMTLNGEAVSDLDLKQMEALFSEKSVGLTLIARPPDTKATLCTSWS
TEST PROTOCOL: holdup assay
Design: key: below the threshold = too weak to quantify, mostly under pKd 3.1 to 4
MEASUREMENT CONDITIONS: plain residues with an end cap or a label only (N-terminal biotin on a linker: ado-ado)
OUTCOME MEASURE: pKd

> print(dat)
                                  binder  endpoint.value
 1            YNNCLEILRV [DCAF7, P61962]            4.04
 2           AKPSRISTVV [IQSEC2, Q5JU85]            3.91
 3            QSPANIYYKV [EFNB1, P52799]             4.1
 4           EKKTLIGIKL [GOT1L1, Q8NHS2]            3.57
 5            VKPQVSESKL [ACOT8, O14734]            4.03
 6           NLSIEKETKL [ASNSD1, Q9NWL6]            3.94
 7            VDSTVKVWTC [TRAF7, Q6Q0C0]            4.22
 8             QSLNRMEYIV [JAG1, P78504]            4.18
 9           TLPRKRMSSI [GPRC6A, Q5T6X5]            4.07
10         GNSVLKSTQF [SLC22A12, Q96S37]            4.13
11            YYKRPVQEWV [MMP24, Q9Y5R2]            4.08
12  YLEPVLSSEL [ATP2A2, P16615;P16615-3]            3.98
13           LSEFKAMDSI [CTNNA1, P35221]            3.48
